assay: soluble on expression in E. coli; label from the status in PepcDB or PDB records
readout kind: soluble on expression in E. coli

Below, each entry is followed by its recorded soluble on expression in E. coli result.
* MGSDKIHHHHHHMEDLYLECPGCDEVTLHTVLKEKESKKHLKITVKCQECGTVHDIEKNFKLKDIKIVISRYDESEQSVLQIATDEILKVEDVILAFDESVEITALETEDSRRVSSSAAQDLKMIWARSIDVPKKVGISINSRESTYSFNILVPQDYVFEEKKIYRAGRDFFRIKQIKTEKGNFSRELARKIKRIYGEPVKPLRDYTDLTDYML | not soluble
* MASGDLVHYVITVMLHEDTLTEINELNNYLTRDGFLLTMTDDEGNIHELGTNTFGLISTQSEEEIRELVSGLTQSATGKDPEITITTWEEWNSNRK | not soluble
* MSITSPVSNTWAPTVKGPHGTQSKIDTKSLSPNLSRAELRKQVRLARRSLSTEVQAEASINACERMLKKLMAMNAQHVALYLTHDGELATAPLIAALWQRGIQTYLPRLHPFNAGQLLFLHYHADSPMQPNQYGILEPKLDVRSVMPIERLDVVVTPLVAFDIKGNRMGMGGGYYDRTLANWQDNGKPLPMGYAHDCQQVPSLPCEHWDVPLPAIITPSRVWEFLEHHHHHH | soluble
* DADLATGAKVFSANCAACHAGGINLVNAEKTLKKEALEKFGMNSIVAITTQVTNGKAGMPAFKGRLTDDQIAAVAAYVLDQAEKGW | soluble
* MSQRVSYYEIAPEGMKIMMDMEKYTKQSSINRTTRELIKIRVSQMNGCAFCIDMHTSDARKMGETEQRIYCLHAWNECDFYSPEEKAALELSEHITLIPSKRVPDELYHRVREHYDEEQYVDLVLIINQINSWNRISIAMGNRAASK | soluble
* MTETTYENLTRRIDRISAEMREISEENGLRILSLLESQTKSIKDELSRLLWIELPELNESHKIEAVSKSTTGMFFAPGIFEMDAMRKAFFKRQAKHFFENEAEQQAYIEHAEKEYLEATVTLKDILFNSKNGTQKANKSCLIEKFEEAMQ | not soluble

Memo: "MLKFNEEQQIKDIRGALALRSDVEKVVDQVWTKGFDAVYYIGIGGTYASAMQAVTYANGKSNLPIYVQHAAEYYTTGNKRLTEKSFVILSSVTGTTQEVVQAVQEIKKVGATLFGFIDAKDSLLADLCDYVVTYPAPGTEQIKFFMVADRLMQKNNEFTDYENYYQELEEYLPTGLAEAEKSADAFGLAFAEKHRHDSIHYFIGAGNQWGAVYSYAMCYWEEQSWLRSKSIHAAEFLHGTLEIVDETTPVTLFIGEDEQRPLAERVAKLLPKICANYTIIDSKAYELPGISEKYRGRVVSFLLMHAVTQRIDAHVEKLNCHPLEIRRYYRQFDY" , reported soluble on expression in E. coli: not soluble

Memo: "MKRLLLSAAILSSMALFNVNAQELKTSADMKGSFKKNVVLEVFTAEWCGYCPGGKERIAKAIEMLDDEYKERVFQTFVHYNDGISKKWPRVGQLFIALDQTLGIPGFPTFSVCRMEKKGENLSIGAPIAIKNKIMKGFGDGTAPAEVNLKLTKGATPEDVCTATFTGKVDADLIGKPLMLTAYVLKNNMKPINPQNGAGDGYLHQHTVLMILSTDVKGDALNIAADGSFTIKKEFKLDGFEIKDTDVLAFVHHPMSNAENHSIINAGQESLDKAEPTATEQIVATPSVKAYVQNGKIVVEEEYSKMEVFNATGQLVKNESLVPGVYVVRITANGVMYFLKVLVPMAGDPLEHHHHHH" , reported soluble on expression in E. coli: soluble

Memo: "MRKYEQKQLRNHDILTQHYEEVYRQLPEFKSLDDSISILSVQYGKRLLNGDQKAISSLKEELAILRASKQELLRSSGFPADYLEPVYDCPNCKDTGYIGNQKCHCFKKAIIDLLYEQSNLKEILKKENFSNFALDYYSTNFIDPKTGRSSRQVIEDALRICRNFVTSFGTDFQNLFLYGDVGVGKTFLSNCIAKELMDKEYSVLYFSASKFFSSLAKHAFDKQDVDAQNMFELIYNCDCLIIDDLGTEYTNNFIASQFFTCINERLLNSRSTIISTNLSLDTLADLYTERSFSRITSNYIMLKLIGDDIRIKKKLKNREEN" , reported soluble on expression in E. coli: not soluble

Memo: "MGVSLSKGGNVSLTKEAPGLTAVIVGLGWDVRTTTGTDFDLDASALLTNVEGKVANDQNFVFFNNLKSPDGSVEHTGDNITGEGEGDDEQIKVDLATVPADVDKIVFPVSIYDAENRQQSFGQVRNAFIRVVNQAGGAEIARYDLSEDASTETAMVFGELYRNGPEWKFRAIGQGYASGLRGIAQDFGVNV" , reported soluble on expression in E. coli: not soluble

Memo: "MEIQFLGTGAGQPAKARNVSSLVLKLLDEINEVWMFDCGEGTQRQILETTIKPRKVKKIFITHMHGDHVFGLPGFLSSRAFQANEEQTDLDIYGPVGIKSFVMTALRTSGSRLPYRIHFHEFDESSLGKIMETDKFTVYAEKLDHTIFCMGYRVVQKDLEGTLDAEALKLAGVPFGPLFGKVKNGENVTLEDGREIIAKDYISEPKKGKVITILGDTRKTDASIRLALGADVLVHESTYGKGDERIAKSHGHSTNMQAADIAKQANAKRLLLNHVSARFMGRDCWQMEEDAKTIFSNTHLVRDLEEVGILEHHHHHH" , reported soluble on expression in E. coli: soluble

Memo: "MEQRFPELNVDLSFEQEFQMRVMEEQVSAMSLQEARELLLQASRLLMMKDNVIRSLVKRAARS" , reported soluble on expression in E. coli: soluble

Memo: "MGSDKIHHHHHHMARGYIAKKLLVEGKDDLRVIPELIEKNGIVWGNNKKEAIVTIEDYGGYTNINSDLVSTELQASGLTHLGLMVDADDKPQTRWQSIREACLDSILDIPEEIPTTGLIHTTNTGIKFGVWIMPDNLMQGMLETFLAYMIPDESEPLWMYAQEVVAEAKIKGASFIDARIDKAKIHTWLAWQEEPGR" , reported soluble on expression in E. coli: not soluble

###

experiment: soluble on expression in E. coli; label from the status in PepcDB or PDB records
readout kind: soluble on expression in E. coli

Below, each entry is followed by its recorded soluble on expression in E. coli result.
* MGSDKIHHHHHHMTVELLNEPLSRYPAFDTADPEELRQALSSVYGAKLVEGPIAADFHARSNFVQLDDIALAFGVGTGSIAVEFPEGECARLQIALSGQFTTRSGGTSTAINARQAGIISPGRNARTEYGQNYSFTLLRVSTSALERKLTTLLGCKPKASLEFEPAANNEAPQVVNLRRMLCFLANQLNCSPLPPVVLAELQEAITLLFLSAFRHNYSRQLERESHGIAPKHVRQVEEYIEANWMRPITIEKLTALTGISSRGIFKAFQRSRGYSPMAFAKRVRLQHAHNLLSDGATPTTVTAAALSCGFSNLGHFARDYRDMFGEKPSETLQRARP | not soluble
* MNTVLIPPGPGGYGKGLWLPVGSGKKVLSLTGREIHPVAIEIGALTQSEVVNGFADIPPDNDILCVVINCAGSLRCGLYPQKGIPTINVLPTWRAGPLAQFITEENYVSGVTMEQLVLVDTAEAPDGKPETTQEPAPRVISTPPSPRGAEKLVRMVEQTGTAVGHVIALLFAASREAVDVSLRN | not soluble
* MEIERRLVLEVVRVTEQAALAASRFAGKGDKEAVDEAGTQAMRRVLNELPIRGTVVIGEGEMDEAPMLYIGEVLGQGGLEVDIAVDPVEGTTTVAKGLPNAVTVIALSEKGGLFHAPDMYMEKLIVPPSAVGLVDLTWPVSVNLRALALALQRSVEDLVVVVLEPPRHERLIREIRKAGAPVKLISDGDVIAALAAAIRGTGVHAVMGIGGAPEGVLTAAALKCLGGEIQARFVPQNEEERERLKAMGGDEHRIYKTEDLAPGKEIVFAATGITDGDILEGVRFFGGGARTHSIVMGHATRVVRFIDSIHLFETGARVTIRV | soluble
* MQINNQSRDVFYVSDGTAITCETLGHVVLGQFPFIPNEKTFPFVESQDKVADVVKEIETSYQRNGVKPLVFFSIVVPGVREMLLEAPAYSYDVLESIVQKVQDDIQMAPAPKLQRSRSVGKDSDTYFDRIAAIEYTLAHDDGITLKGLEQADIILLGVSRSGKTPTSLYMAMQFGLRVVNYPFIAEDVKMMRLLPEFEVHRHKLFGLTITPERLNEIRENRLSGSDYASEEQCKLELDTVEALFRREAIPYINTSSLSVEEISTRILERAGMKRRLFGLEHHHHHH | soluble

Memo: "MHSALWVSKTGMAAQDTKMTAISNNLANVNTVGFKRDRVVFEDLFYSIQRQPGAQVDQVNELPSGVQLGSGVRVVGTQKVFTQGNTQNTTQDLDLAVMGQGFFQIENSDGQIMYTRNGQFHINSEGLMVNSQGLPLEPQIQI" , reported soluble on expression in E. coli: not soluble

Memo: "MAEKTRYSDAELEEFRAIIMEKLELAQRDYDQLKMSLMGLDGNDTDDTSPTYKVLEEGANTLSKEETTRLAQRQLKFIQGLQAALVRIENKTYGICRETGKLIPAERLRAVPHATLSIEAKNSGKK" , reported soluble on expression in E. coli: not soluble

Values were extracted from the DeepSol protein solubility set.
